Known pKd of a selection of molecules
assay: Binding affinity to trans-activation response RNA by surface plasmon resonance
pKd: −log10 of the molar value.
parameter: pKd

>>> test_result("NCCN(CC(=O)NCCN[C@H]1[C@@H](O)[C@H](N)C[C@H](N)[C@H]1O[C@H]1O[C@H](CN)[C@@H](O)[C@H](O)[C@H]1N)C(=O)Cn1ccc(=O)[nH]c1=O")
4.62
>>> test_result("Cc1cn(CC(=O)N(CCN)CC(=O)NCCN(CC(=O)NCCN[C@H]2[C@@H](O)[C@H](N)C[C@H](N)[C@H]2O[C@H]2O[C@H](CN)[C@@H](O)[C@H](O)[C@H]2N)C(=O)Cn2cc(C)c(=O)[nH]c2=O)c(=O)[nH]c1=O")
5.30
>>> test_result("Cc1cn(CC(=O)N(CCNC(=O)CN(CCN)C(=O)Cn2ccc(=O)[nH]c2=O)CC(=O)NCCN[C@H]2[C@@H](O)[C@H](N)C[C@H](N)[C@H]2O[C@H]2O[C@H](CN)[C@@H](O)[C@H](O)[C@H]2N)c(=O)[nH]c1=O")
5.22
>>> test_result("Cc1cn([C@H]2C[C@H](OP(=O)(O)OC[C@H]3O[C@@H](n4cc(C)c(=O)[nH]c4=O)C[C@@H]3O)[C@@H](C(=O)NCCCCCCN[C@H]3[C@@H](O)[C@H](N)C[C@H](N)[C@H]3O[C@H]3O[C@H](CN)[C@@H](O)[C@H](O)[C@H]3N)O2)c(=O)[nH]c1=O")
3.94

----------
Below, each entry is listed with its recorded Kd.
assay: Binding affinity to 18S RNA by surface plasmon resonance
parameter: Kd (µM)

>>> test_result("Cc1cn(CC(=O)N(CCN)CC(=O)NCCN[C@H]2[C@@H](O)[C@H](N)C[C@H](N)[C@H]2O[C@H]2O[C@H](CN)[C@@H](O)[C@H](O)[C@H]2N)c(=O)[nH]c1=O")
11
>>> test_result("Cc1cn([C@H]2C[C@H](OP(=O)(O)OC[C@H]3O[C@@H](n4cc(C)c(=O)[nH]c4=O)C[C@@H]3O)[C@@H](C(=O)NCCCN[C@H]3[C@@H](O)[C@H](N)C[C@H](N)[C@H]3O[C@H]3O[C@H](CN)[C@@H](O)[C@H](O)[C@H]3N)O2)c(=O)[nH]c1=O")
555

----------
test: Binding affinity to 16S RNA by surface plasmon resonance
pKd: −log10 of the molar value.
parameter: pKd

>>> test_result("NC[C@H]1O[C@H](O[C@H]2[C@@H](NCCNC(=O)[C@H]3O[C@@H](n4ccc(=O)[nH]c4=O)C[C@@H]3OP(=O)(O)OC[C@H]3O[C@@H](n4ccc(=O)[nH]c4=O)C[C@@H]3O)[C@@H](O)[C@H](N)C[C@@H]2N)[C@H](N)[C@@H](O)[C@@H]1O")
3.74
>>> test_result("Cc1cn([C@H]2C[C@H](OP(=O)(O)OC[C@H]3O[C@@H](n4cc(C)c(=O)[nH]c4=O)C[C@@H]3O)[C@@H](C(=O)NCCN[C@H]3[C@@H](O)[C@H](N)C[C@H](N)[C@H]3O[C@H]3O[C@H](CN)[C@@H](O)[C@H](O)[C@H]3N)O2)c(=O)[nH]c1=O")
3.52
>>> test_result("NCCN(CC(=O)NCCN[C@H]1[C@@H](O)[C@H](N)C[C@H](N)[C@H]1O[C@H]1O[C@H](CN)[C@@H](O)[C@H](O)[C@H]1N)C(=O)Cn1cnc2c(N)ncnc21")
4.80
>>> test_result("NCCN(CC(=O)NCCN[C@H]1[C@@H](O)[C@H](N)C[C@H](N)[C@H]1O[C@H]1O[C@H](CN)[C@@H](O)[C@H](O)[C@H]1N)C(=O)Cn1ccc(=O)[nH]c1=O")
4.85
>>> test_result("Cc1cn(CC(=O)N(CCN)CC(=O)NCCN(CC(=O)NCCN[C@H]2[C@@H](O)[C@H](N)C[C@H](N)[C@H]2O[C@H]2O[C@H](CN)[C@@H](O)[C@H](O)[C@H]2N)C(=O)Cn2ccc(=O)[nH]c2=O)c(=O)[nH]c1=O")
4.92
>>> test_result("Cc1cn([C@H]2C[C@H](OP(=O)(O)OC[C@H]3O[C@@H](n4cc(C)c(=O)[nH]c4=O)C[C@@H]3O)[C@@H](C(=O)NCCCN[C@H]3[C@@H](O)[C@H](N)C[C@H](N)[C@H]3O[C@H]3O[C@H](CN)[C@@H](O)[C@H](O)[C@H]3N)O2)c(=O)[nH]c1=O")
3.50
>>> test_result("NCCN(CC(=O)NCCN(CC(=O)NCCN[C@H]1[C@@H](O)[C@H](N)C[C@H](N)[C@H]1O[C@H]1O[C@H](CN)[C@@H](O)[C@H](O)[C@H]1N)C(=O)Cn1ccc(=O)[nH]c1=O)C(=O)Cn1ccc(=O)[nH]c1=O")
4.77
>>> test_result("Cc1cn(CC(=O)N(CCN)CC(=O)NCCN[C@H]2[C@@H](O)[C@H](N)C[C@H](N)[C@H]2O[C@H]2O[C@H](CN)[C@@H](O)[C@H](O)[C@H]2N)c(=O)[nH]c1=O")
5.10
>>> test_result("NC[C@H]1O[C@H](O[C@H]2[C@H](O)[C@@H](O)[C@H](N)C[C@@H]2N)[C@H](N)[C@@H](O)[C@@H]1O [NEAMINE]")
4.96
>>> test_result("Cc1cn(CC(=O)N(CCN)CC(=O)NCCN(CC(=O)NCCN[C@H]2[C@@H](O)[C@H](N)C[C@H](N)[C@H]2O[C@H]2O[C@H](CN)[C@@H](O)[C@H](O)[C@H]2N)C(=O)Cn2cc(C)c(=O)[nH]c2=O)c(=O)[nH]c1=O")
5.05
